Reported pIC50 values are given for each entry in this list.
System: human orexin-1 receptor (Homo sapiens (Human))
Sequence (O43613 whole entry): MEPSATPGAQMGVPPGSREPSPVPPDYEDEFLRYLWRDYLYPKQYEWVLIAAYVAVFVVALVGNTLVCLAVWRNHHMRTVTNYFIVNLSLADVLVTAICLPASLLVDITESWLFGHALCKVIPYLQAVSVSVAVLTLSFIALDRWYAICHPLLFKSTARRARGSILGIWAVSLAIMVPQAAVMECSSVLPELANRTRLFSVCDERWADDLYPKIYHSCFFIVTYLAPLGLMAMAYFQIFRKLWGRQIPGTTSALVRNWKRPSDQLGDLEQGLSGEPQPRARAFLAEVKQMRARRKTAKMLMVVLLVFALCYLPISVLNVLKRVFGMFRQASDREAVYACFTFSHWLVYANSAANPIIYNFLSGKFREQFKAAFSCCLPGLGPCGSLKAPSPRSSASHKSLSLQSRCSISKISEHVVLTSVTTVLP
Assay method text: In vitro intracellular calcium measurements (FLIPR), antagonistic activity on orexin-1 receptor
Assay type: cell-based
Run parameters: CHO cells expressing human orexin-1 receptor; FLIPR; 3 nM orexin-A agonist; 120 min antagonist incubation; geometric mean if determined several times; read-out: IC50 OX1
pIC50: −log10 of the molar value.

Molecule: COc1cc(C(=O)N2CCOC[C@H]2Cc2cccc(-n3nccn3)c2)c(-n2nccn2)cc1OC
pIC50: 8.30
--
Molecule: Cc1ccc(-n2nccn2)c(C(=O)N2CCO[C@H](C)[C@H]2Cc2cccc(-n3nccn3)c2)c1 (single isomer, unassigned)
pIC50: 7.72
--
Molecule: Cc1ccc(C(=O)N2CCOC[C@H]2Cc2cc(-n3cccn3)ccc2C)c(-n2nccn2)c1
pIC50: 7.92
--
Molecule: Cc1cccc(C(=O)N2CCOC[C@H]2Cc2cc(-c3ncon3)ccc2F)c1-n1nccn1
pIC50: 7.60
--
Molecule: O=C(c1ccc(Cl)cc1-n1nccn1)N1CCOC[C@H]1Cc1cccc(-c2ncon2)c1
pIC50: 7.38
--
Molecule: Cc1ccc(C(=O)N2CCOC[C@H]2Cc2cc(-c3ncon3)ccc2F)c(-n2nccn2)c1
pIC50: 8.52
--
Molecule: Cc1ccc(-n2nccn2)c(C(=O)N2CCC[C@H]2Cc2cccc(-n3nccn3)c2)c1
pIC50: 9.30
--
Molecule: O=C(c1ccc(Cl)cc1-n1nccn1)N1CCOC[C@H]1Cc1cccc(-n2nccn2)c1
pIC50: 9.00
--
Molecule: Cc1ccc(-n2nccn2)c(C(=O)N2C[C@@H](C)OC[C@H]2Cc2cc(-n3nccn3)ccc2F)c1
pIC50: 8.70
--
Molecule: Cc1ccc(C(=O)N2C[C@@H](C)OC[C@H]2Cc2cccc(-c3ncccn3)c2)c(-n2nccn2)c1
pIC50: 8.70
--
Molecule: Cc1ccc(C(=O)N2CCOC[C@H]2Cc2cccc(-c3ncon3)c2)c(-n2nccn2)c1
pIC50: 8.70
--
Molecule: O=C(c1ccccc1-n1nccn1)N1CCOC[C@H]1Cc1cccc(-c2cccs2)c1
pIC50: 9.30
--
Molecule: Cc1ccc(-n2nccn2)c(C(=O)N2CCOC[C@H]2Cc2cc(-n3cccn3)ccc2C)c1
pIC50: 7.68
--
Molecule: Cc1ccc(-n2nccn2)c(C(=O)N2CCOC[C@H]2Cc2cccc(-c3nccc(C)n3)c2)c1
pIC50: 8.30
--
Molecule: COc1ccc(C[C@@H]2COCCN2C(=O)c2cc(C)ccc2-n2nccn2)cc1-c1ncon1
pIC50: 9.15
--
Molecule: Cc1ccc(-n2nccn2)c(C(=O)N2C[C@@H](C)OC[C@H]2Cc2cc(-n3ccnn3)ccc2F)c1
pIC50: 7.57
--
Molecule: C[C@@H]1CN(C(=O)c2cc(Cl)ccc2-n2nccn2)[C@H](Cc2cccc(-c3ncccn3)c2)CO1
pIC50: 8.70
--
Molecule: Cc1cccc(C(=O)N2C[C@@H](C)OC[C@H]2Cc2cccc(-n3nccn3)c2)c1-n1nccn1
pIC50: 8.52
--
Molecule: Cc1ccc(C(=O)N2C[C@@H](C)OC[C@H]2Cc2cc(-n3ccnn3)ccc2F)c(-n2nccn2)c1
pIC50: 7.80
--
Molecule: Cc1ccc(-n2nccn2)c(C(=O)N2CCOC[C@H]2Cc2cccc(-c3cccnn3)c2)c1
pIC50: 7.89
--
Molecule: COc1ccc(C[C@@H]2COCCN2C(=O)c2ccccc2-n2nccn2)cc1-c1cccnn1
pIC50: 7.59
--
Molecule: O=C(c1ccccc1-n1nccn1)N1CCOC[C@@H]1Cc1cccc(-n2nccn2)c1
pIC50: 6.02
--
Molecule: N#Cc1ccc(-n2nccn2)c(C(=O)N2CCOC[C@H]2Cc2cccc(-n3nccn3)c2)c1
pIC50: 7.48
--
Molecule: C[C@@H]1CN(C(=O)c2ccc(Cl)cc2-n2nccn2)[C@H](Cc2cc(-n3nccn3)ccc2F)CO1
pIC50: 8.22
--
Molecule: Cc1cc(C(=O)N2CCOC[C@H]2Cc2cc(-n3nccn3)ccc2F)c(-n2nccn2)cc1C
pIC50: 9.15
--
Molecule: O=C(c1cc(F)ccc1-n1nccn1)N1CCOC[C@H]1Cc1cccc(-n2nccn2)c1
pIC50: 7.68
--
Molecule: Cc1cccc(C(=O)N2C[C@@H](C)OC[C@H]2Cc2cc(-n3nccn3)ccc2F)c1-n1nccn1
pIC50: 8.00
--
Molecule: O=C(c1cccc(Cl)c1-n1nccn1)N1CCOC[C@H]1Cc1cccc(-n2nccn2)c1
pIC50: 8.30
--
Molecule: Cc1ccc(-n2nccn2)c(C(=O)N2CCOC[C@H]2Cc2cccc(-n3cccn3)c2)n1
pIC50: 7.57
--
Molecule: Cc1cccc(C(=O)N2C[C@@H](C)OC[C@H]2Cc2cc(-c3ncccn3)ccc2F)c1-n1nccn1
pIC50: 8.05
--
Molecule: Cc1ccc(-n2nccn2)c(C(=O)N2CCOC[C@H]2Cc2cccc(-c3ccncc3)c2)c1
pIC50: 7.37

###

Reported values of IC50 for individual entries
System: human orexin-2 receptor (Homo sapiens (Human), UniProt O43614)
Sequence (O43614 whole entry): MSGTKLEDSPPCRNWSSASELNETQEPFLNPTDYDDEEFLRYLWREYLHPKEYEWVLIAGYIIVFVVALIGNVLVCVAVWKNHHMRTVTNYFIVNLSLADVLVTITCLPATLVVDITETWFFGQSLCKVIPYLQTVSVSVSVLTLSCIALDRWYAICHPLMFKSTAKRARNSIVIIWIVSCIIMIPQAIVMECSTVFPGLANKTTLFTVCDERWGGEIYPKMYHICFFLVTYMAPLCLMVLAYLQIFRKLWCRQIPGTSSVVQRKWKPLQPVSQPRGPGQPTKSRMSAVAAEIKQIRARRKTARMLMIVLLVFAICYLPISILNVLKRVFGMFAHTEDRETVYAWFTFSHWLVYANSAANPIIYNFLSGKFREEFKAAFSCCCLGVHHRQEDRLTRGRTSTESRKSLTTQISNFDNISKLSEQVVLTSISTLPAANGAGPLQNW
Assay method text: In vitro intracellular calcium measurements (FLIPR), antagonistic activity on orexin-2 receptor
Format: cell-based
Run parameters: CHO cells expressing human orexin-2 receptor; FLIPR; 3 nM orexin-A agonist; 120 min antagonist incubation; geometric mean if determined several times; read-out: IC50 OX2
Experimental: In Vitro Assay: Intracellular Calcium Measurements: […] Within the Fluorescent Imaging Plate Reader (FLIPR Tetra, Molecular Devices), antagonists are added to the plate in a volume of 10 μL/well, incubated for 120 min and finally 10 μL/well of agonist is added. Fluorescence is measured for each well at 1 second intervals, and the height of each fluorescence peak is compared to the height of the fluorescence peak induced by 3 nM orexin-A with vehicle in place of antagonist. […]

Molecule: Cc1ccc(-n2nccn2)c(C(=O)N2CCOC[C@H]2Cc2cccc(-c3nccc(C)n3)c2)c1
Units text: nM
IC50: 231
--
Molecule: O=C(c1ccccc1-n1nccn1)N1CCOC[C@H]1Cc1ccc(O)c(-c2ncccn2)c1
Units text: nM
IC50: 2010
--
Molecule: Cc1ccc(-n2nccn2)c(C(=O)N2CCOC[C@H]2Cc2cccc(-n3cccn3)c2)c1F
Units text: nM
IC50: 1650
--
Molecule: Cc1ccc(-n2nccn2)c(C(=O)N2CCOC[C@H]2Cc2cccc(-n3ccnn3)c2)c1
Units text: nM
IC50: 3160
--
Molecule: C[C@@H]1CN(C(=O)c2cc(Cl)ccc2-n2nccn2)[C@H](Cc2cc(-n3nccn3)ccc2F)CO1
Units text: nM
IC50: 181
--
Molecule: O=C(c1ccccc1-n1nccn1)N1CCCC[C@H]1Cc1cccc(-n2nccn2)c1
Units text: nM
IC50: 12
--
Molecule: Cc1cccc(C(=O)N2CCOC[C@H]2Cc2cc(-c3ncon3)ccc2F)c1-n1nccn1
Units text: nM
IC50: 893
--
Molecule: O=C(c1ccc(Cl)cc1-n1nccn1)N1CCOC[C@H]1Cc1cc(-n2nccn2)ccc1F
Units text: nM
IC50: 191
--
Molecule: Cc1ccc(C(=O)N2CCOC[C@H]2Cc2cc(-n3cccn3)ccc2C)c(-n2nccn2)c1
Units text: nM
IC50: 1090
--
Molecule: Cc1cccc(C(=O)N2[C@H](Cc3cccc(-n4nccn4)c3)COC[C@H]2C)c1-n1nccn1
Units text: nM
IC50: 2610
--
Molecule: Cc1ccc(-n2nccn2)c(C(=O)N2CCOC[C@H]2Cc2cccc(-c3cccnn3)c2)c1
Units text: nM
IC50: 2380
--
Molecule: O=C(c1ccccc1-n1nccn1)N1CCOC[C@H]1Cc1cc(-n2nccn2)ccc1F
Units text: nM
IC50: 2740
--
Molecule: Cc1ccc(-n2nccn2)cc1C[C@@H]1COCCN1C(=O)c1ccc(Cl)cc1-n1nccn1
Units text: nM
IC50: 1040
--
Molecule: O=C(c1ccccc1-n1nccn1)N1CCOC[C@H]1Cc1ccc(Cl)c(-c2ncccn2)c1
Units text: nM
IC50: 2260
--
Molecule: Cc1ccc(C(=O)N2CCOC[C@H]2Cc2cc(-c3ncccn3)ccc2F)c(-n2nccn2)c1
Units text: nM
IC50: 571
--
Molecule: COc1ccc(-n2nccn2)c(C(=O)N2CCOC[C@H]2Cc2cc(-n3nccn3)ccc2F)c1F
Units text: nM
IC50: 2600
--
Molecule: Cc1ccc(C(=O)N2CCOC[C@H]2Cc2cc(-n3nccn3)ccc2Cl)c(-n2nccn2)c1C
Units text: nM
IC50: 2440
--
Molecule: Cc1ccc(-n2nccn2)c(C(=O)N2CCOC[C@H]2Cc2cccc(-c3ncccn3)c2)c1
Units text: nM
IC50: 396
--
Molecule: Cc1ccc(-n2nccn2)cc1C[C@@H]1COCCN1C(=O)c1ccccc1-n1nccn1
Units text: nM
IC50: 1640
--
Molecule: O=C(c1cccc(F)c1-n1nccn1)N1CCOC[C@H]1Cc1cccc(-c2ncon2)c1
Units text: nM
IC50: 1140
--
Molecule: Cc1cc(C)c(-n2nccn2)c(C(=O)N2CCOC[C@H]2Cc2cccc(-c3ncon3)c2)c1
Units text: nM
IC50: 420
--
Molecule: Cc1ccc(-n2nccn2)c(C(=O)N2CCOC[C@H]2Cc2cccc(-n3cccn3)c2)c1
Units text: nM
IC50: 369
--
Molecule: Cc1cccc(C(=O)N2CCOC[C@H]2Cc2cc(-c3ncccn3)ccc2F)c1-n1nccn1
Units text: nM
IC50: 2590
--
Molecule: Cc1cccc(C(=O)N2CCO[C@@H](C)[C@H]2Cc2cccc(-n3nccn3)c2)c1-n1nccn1 (single isomer, unassigned)
Units text: nM
IC50: 4040
--
Molecule: Cc1ccc(-n2nccn2)c(C(=O)N2CCOC[C@H]2Cc2cc(-n3nccn3)ccc2F)c1
Units text: nM
IC50: 837
--
Molecule: COc1cc(C(=O)N2CCOC[C@H]2Cc2cccc(-n3nccn3)c2)c(-n2nccn2)cc1Cl
Units text: nM
IC50: 117
--
Molecule: O=C(c1ccc(Cl)cc1-n1nccn1)N1CCOC[C@H]1Cc1cc(-c2ncccn2)ccc1F
Units text: nM
IC50: 268
--
Molecule: Cc1ccc(C(=O)N2C[C@@H](C)OC[C@H]2Cc2cc(-c3ncccn3)ccc2F)c(-n2nccn2)c1C
Units text: nM
IC50: 818
--
Molecule: C[C@@H]1CN(C(=O)c2cc(Cl)ccc2-n2nccn2)[C@H](Cc2cc(-c3ncccn3)ccc2F)CO1
Units text: nM
IC50: 129
--
Molecule: O=C(c1cccc(Cl)c1-n1nccn1)N1CCOC[C@H]1Cc1cc(-n2nccn2)ccc1Cl
Units text: nM
IC50: 675
--
Molecule: Cc1cc(-n2nccn2)c(C(=O)N2CCOC[C@H]2Cc2cccc(-n3nccn3)c2)cc1Cl
Units text: nM
IC50: 47
